Recorded values, source patent US20200299395A1.

Target: T1, BCMA expressed on multiple myeloma cell lines H929 and MM1S (UniProt Q02223 1-184, limits assumed)
T1 construct: whole, on cells; Endogenous BCMA on tumour cell lines; also called BMCA; cell surface BCMA
T1 sequence (looked up): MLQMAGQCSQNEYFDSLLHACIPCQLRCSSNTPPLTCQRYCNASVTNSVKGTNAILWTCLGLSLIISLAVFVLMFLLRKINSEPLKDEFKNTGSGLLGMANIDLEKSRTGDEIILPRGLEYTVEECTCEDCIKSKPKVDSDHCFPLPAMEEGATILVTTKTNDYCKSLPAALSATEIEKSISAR
Assay: flow cytometry, H929 cells, purified VH domain (text: 1 uM); control iso_anti-His-PE Median 10.8 [B), H929 table]
value-kind: Median FL2-H

The recorded Median FL2-H for Clone MN1 (VH domain) (VHH, Single-domain antibody: a VH domain from a synthetic phage library, not camelid; Expressed in E. coli) VHH: EVQLVESGGGLVQPGGSLRLSCAASGFTFTAYDMGWVRQAPGKGPEWVSLISSDSGDTWYDDSVKGRFTISRDNSKNTLYLQMNSLRAEDTAVYYCARLGAYSTTYDYWGQGTLVTVSS is 50.4

The recorded Median FL2-H for Clone MN7 (VH domain) (VHH, Single-domain antibody: a VH domain from a synthetic phage library, not camelid; Expressed in E. coli) VHH: EVQLVESGGGLVQPGGSLRLSCAASGFTFSSYAMGWVRQAPGKGPEVVSLISGSGGSTWYDDSVKGRFTISRDNSKNTLYLQMNSLRAEDTAVYYCASPEDMYQTWGQGTLVTVSS is 11.8

The recorded Median FL2-H for Clone MN5 (VH domain) (VHH, Single-domain antibody: a VH domain from a synthetic phage library, not camelid; Expressed in E. coli) VHH: EVQLVESGGGLVQPGGSLRLSCAASGFTFSSYAMGWVRQAPGKGPEVVSLISGSGGSTWYDDSVKGRFTISRDNSKNTLYLQMNSLRAEDTAVYYCASREDNMTTWGQGTLVTVSS is 22.9

The recorded Median FL2-H for Clone MN8 (VH domain) (VHH, Single-domain antibody: a VH domain from a synthetic phage library, not camelid; Expressed in E. coli) VHH: EVQLVESGGGLVQPGGSLRLSCAASGFTFSSYAMGWVRQAPGKGPEVVSLISGSGGSTWYDDSVKGRFTISRDNSKNTLYLQMNSLRAEDTAVYYCASPEDAPSYSRWGQGTLVTVSS is 12.9
